Measured Pre-emergence efficacy against POLCO accompanies every entry in the list below.
Tested on: Polygonum convolvulus (POLCO)
METHOD NOTES: C. Herbicidal pre-emergence efficacy, POLCO
Type: in vivo
CONDITION: 320 g/ha, scored after about 3 weeks
Excerpt: Seeds of monocotyledonous and dicotyledonous weed plants and crop plants were placed in plastic or organic planting pots and covered with soil. […] After about 3 weeks, the efficacy of the preparations was scored visually in comparison with untreated controls as percentages. […]
Report the value in % with no unit label.

Solved cases (2 shown):
RECORD SMILES: O=S(=O)(CCC(F)(F)F)Oc1ccccc1Oc1ncc(Cl)cn1
Pre-emergence efficacy against POLCO, %: 90
//
RECORD SMILES: O=S(=O)(CCCC(F)(F)F)Oc1c(Cl)cccc1Oc1ncc(Br)cn1
Pre-emergence efficacy against POLCO, %: 100

**Q:** Return value of Pre-emergence efficacy against POLCO for input O=S(=O)(CCC(F)(F)F)Oc1c(Cl)cccc1Oc1ncc(Br)cn1 , no commentary.
**A:** 100

**Q:** Return value of Pre-emergence efficacy against POLCO for input O=S(=O)(CCCCl)Oc1c(F)cccc1Oc1ncc(Cl)cn1 , no commentary.
**A:** 100

**Q:** Return value of Pre-emergence efficacy against POLCO for input Cc1cccc(Oc2ncc(F)cn2)c1OS(=O)(=O)CCC(F)(F)F , no commentary.
**A:** 100
